pEC50 values by entry
# test.target: CXCR4 (Homo sapiens, UniProt P61073)
# Sequence (P61073 whole entry): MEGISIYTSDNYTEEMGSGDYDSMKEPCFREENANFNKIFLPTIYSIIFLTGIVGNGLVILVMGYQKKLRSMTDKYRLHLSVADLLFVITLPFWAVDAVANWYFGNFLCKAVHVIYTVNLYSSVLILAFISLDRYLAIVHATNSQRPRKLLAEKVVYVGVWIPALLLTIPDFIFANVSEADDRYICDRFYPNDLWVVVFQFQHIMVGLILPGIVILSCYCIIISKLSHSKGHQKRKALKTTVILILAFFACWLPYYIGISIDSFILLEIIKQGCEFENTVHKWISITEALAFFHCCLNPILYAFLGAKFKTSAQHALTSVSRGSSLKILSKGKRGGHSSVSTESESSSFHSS
# method.description: β-arrestin recruitment, 384-well, Tango CXCR4-bla U2OS cells, normalized to SDF-1α
# Assay type: cell-based
# Parameters: host or cells: U2OS
# conditions: normalized to SDF-1; read-out: TANGO β-arrestin EC50
pEC50: −log10 of the molar value.

smiles.entry | pEC50
CCOc1ccccc1-c1nnc2n1N=C(c1ccc(N3CCC3)cc1)CS2 | > 5.30

# return recorded pEC50 for input `CCOc1ccccc1-c1nnc2n1N=C(c1ccc(NC(=O)c3ccc(C(=O)OC)cc3)cc1)CS2`
< 5.00

* * *

# test.target: UniProt P61073
# method.description: β-arrestin recruitment, 384-well, Tango CXCR4-bla U2OS cells, normalized to SDF-1α
# Type: cell-based
# Design: host or cells: U2OS
# conditions: normalized to SDF-1

smiles.entry | test.target | TANGO β-arrestin Emax (%)
COc1ccc(OC)c(-c2nnc3n2N=C(c2ccc(OC)c(OC)c2)CS3)c1 | UniProt P61073 | B (35 < B < 70)
CCOc1ccccc1-c1nnc2n1N=C(c1ccc3c(c1)CCCN3)CS2 | UniProt P61073 | A (A ≥ 70)
COc1ccccc1-c1nnc2n1N=C(c1ccc(N3CCOCC3)cc1)CS2 | UniProt P61073 | A (A ≥ 70)
COc1cc(-c2nnc3n2N=C(c2ccc(Br)cc2)CS3)cc(OC)c1OC | UniProt P61073 | B (35 < B < 70)

* * *

// reported pEC50 for each item listed
# test.target: CXCR4 (Homo sapiens)
# method.description: β-arrestin recruitment, 384-well, Tango CXCR4-bla U2OS cells, normalized to SDF-1α
# Type: cell-based
# Parameters: host or cells: U2OS
# conditions: normalized to SDF-1α; read-out: ß-arrestin recruitment EC50
# Method: […] Results are expressed as mean±SD for 3 to 5 independent experiments. Statistically significant differences in gene expression between two groups were assessed by Student's T-test, ANOVA with an appropriate post hoc test was be used for multiple comparisons. […] All concentration response curves were analyzed to determine EC50 and Emax using the following equation: […]
FYI, pEC50 means -log10 of a concentration in mol per litre.

compound | endpoint.result
COc1ccc(OC)c(NS(=O)(=O)c2ccc(-c3cnc(C4CC4)o3)cc2)c1 | 6.30
CCOc1ccccc1-c1nnc2n1N=C(c1ccc(NC3CCCCC3)cc1)CS2 | 6.11
CCOc1ccccc1-c1nnc2n1N=C(c1ccc(NC3CCCC3)cc1)CS2 | 5.85

Now examine the next entry.
State recorded pEC50 with CXCR4 (Homo sapiens), entry `COc1cccc(C2=Nn3c(nnc3-c3ccccc3OC)SC2)c1` , no comment.
4.97

* * *

# System: CEM-CCRF human lymphoblast cells
# method.description: Transwell migration assay in CEM-CCRF lymphoblasts
# Assay type: cell-based
# conditions: Homo sapiens; read-out: Migration CEM EC50
# Protocol: Thus, to confirm CXCR4 functional activity, UCUF-728 was evaluated in a 96 w transwell migration assay in CEM human lymphoblast cells. CEM-CCRF (ATCC CCL-119) were suspended in RPMI 1640 (Corning; 10-040-CV) at 5.0×10^5 cells/mL and allowed to incubate in cell culture incubator at 37° C. with 5% CO2 for one hour. […] Plates were reassembled and placed in a cell culture incubator at 37° C. with 5% CO2 for three hours. […] Luminescence was measured using the CLARIOstar Plus (BMG LABTECH Inc., Cary, NC).
Overview of recorded EC50 for various molecules

smiles.entry | endpoint.result
COc1ccccc1-c1nnc2n1N=C(c1ccc(SC)cc1)CS2 | < 5 µM
CCOc1ccccc1-c1nnc2n1N=C(c1ccc(NCc3ccccc3)cc1)CS2 | > 10 µM
CCOc1ccccc1-c1nnc2n1N=C(c1ccc(NC(=O)c3ccccc3C(=O)O)cc1)CS2 | > 10 µM
CCOc1ccccc1-c1nnc2n1N=C(c1ccc(N3CCCCC3)cc1)CS2 | > 10 µM
COc1ccc(OC)c(-c2nnc3n2N=C(c2ccc(N4CCC4)cc2)CS3)c1 | < 5 µM
CCOc1ccccc1-c1nnc2n1N=C(c1ccc(N3CCCC3)cc1)CS2 | < 5 µM
CCOc1ccccc1-c1nnc2n1N=C(c1ccc(C(=O)OC)cc1)CS2 | < 5 µM
CCOC(=O)CCNc1ccc(C2=Nn3c(nnc3-c3ccccc3OCC)SC2)cc1 | < 5 µM
CCOc1ccccc1-c1nnc2n1N=C(c1ccc(NCC3CC3)cc1)CS2 | > 10 µM
CCOc1ccccc1-c1nnc2n1N=C(c1ccc(NC(=O)c3cccc(C(=O)OC)c3)cc1)CS2 | > 10 µM

Find the measured EC50 of `CCOc1ccccc1-c1nnc2n1N=C(c1ccc(C(=O)O)cc1)CS2` with CEM-CCRF human lymphoblast cells as test system.
< 5 µM

* * *

# test.target: CXCR4 (Homo sapiens, UniProt P61073)
# method.description: β-arrestin recruitment, 384-well, Tango CXCR4-bla U2OS cells, normalized to SDF-1α
# Type: cell-based
# Parameters: host or cells: U2OS
# conditions: normalized to maximal SDF-1α response
result.type: ß-arrestin recruitment Emax (%)
Your answer should be a plain number; it is taken to be in %.

smiles.entry | endpoint.result
CCCCc1ccc(C2=Nn3c(nnc3-c3ccccc3OC)SC2)cc1 | 12
COc1cccc(C2=Nn3c(nnc3-c3ccccc3OC)SC2)c1 | 40
COc1ccc(C2=Nn3c(nnc3-c3ccccc3OC)SC2)cc1 | 45

Quick one: give measured ß-arrestin recruitment Emax (%) for `CCOc1ccccc1-c1nnc2n1N=C(c1ccc(NC3CCCC3)cc1)CS2`
31

Identify the reported ß-arrestin recruitment Emax (%) for the following entry. `CCOc1ccccc1-c1nnc2n1N=C(c1ccc(NC3CCCCC3)cc1)CS2`
10

* * *

# Tested on: CEM-CCRF human lymphoblast cells
# method.description: Transwell migration assay in CEM-CCRF lymphoblasts
# Assay type: cell-based
# conditions: Homo sapiens
result.type: Emax

Before answering, review these 3 worked examples.
compound | Emax
CCOc1ccccc1-c1nnc2n1N=C(c1ccc(OC(F)F)cc1)CS2 | > 70%
COCCOc1ccc(C2=Nn3c(nnc3-c3ccccc3OC)SC2)cc1 | < 35%
CCOc1ccccc1-c1nnc2n1N=C(c1ccc(OC(F)(F)F)cc1)CS2 | > 70%

Check the records and state Emax for `CCOc1ccccc1-c1nnc2n1N=C(c1ccc(C(=O)Nc3ccccc3)cc1)CS2`
35 to 70%

Complete the entry with Emax for `CCOc1ccccc1-c1nnc2n1N=C(c1ccc(NC(=O)c3ccccc3)cc1)CS2`
< 35%

Hello, please tell me recorded Emax for this one: `COc1ccc(OC)c(-c2nnc3n2N=C(c2ccc(N4CCC4)cc2)CS3)c1`
35 to 70%

Specify Emax for `COc1ccccc1-c1nnc2n1N=C(c1ccc(N(C)C)cc1)CS2` and stop.
35 to 70%

Input `CCOC(=O)CCNc1ccc(C2=Nn3c(nnc3-c3ccccc3OCC)SC2)cc1` , output reported Emax.
< 35%

Look up and state reported Emax for `CCOc1ccccc1-c1nnc2n1N=C(c1ccc(C(=O)O)cc1)CS2`
35 to 70%

* * *

# test.target: CXCR4 (Homo sapiens, UniProt P61073)
# method.description: Adenylate cyclase (cAMP inhibition) assay, thiadiazine scaffold, CHO-CXCR4-cAMP cells
# Type: cell-based
# Design: host or cells: CHO-K1
# conditions: inhibition of forskolin-stimulated cAMP
result.type: EC50 (nM)
Write the value in nM as a bare number.

Return EC50 for the following molecule: CCOc1ccccc1-c1nnc2n1N=C(c1ccc(N3CCCC3)cc1)CS2 [Entry 23]
50

* * *

# test.target: CXCR4 (Homo sapiens, UniProt P61073)
# method.description: β-arrestin recruitment, 384-well, Tango CXCR4-bla U2OS cells, normalized to SDF-1α
# Type: cell-based
# Set-up: host or cells: U2OS
# conditions: normalized to SDF-1
result.type: TANGO β-arrestin Emax (%)

Worked examples, 4 molecules total:
molecule | test.target | TANGO β-arrestin Emax (%)
C=CCOc1ccc(C2=Nn3c(nnc3-c3ccccc3OCC)SC2)cc1 | CXCR4 (Homo sapiens, UniProt P61073) | A (A ≥ 70)
CCOC(=O)C1CCN(c2ccc(C3=Nn4c(nnc4-c4ccccc4OCC)SC3)cc2)C1 (stereo not shown) | CXCR4 (Homo sapiens, UniProt P61073) | C (C ≤ 35)
CCOc1ccccc1-c1nnc2n1N=C(c1ccc(NC3CCCC3)cc1)CS2 | CXCR4 (Homo sapiens, UniProt P61073) | C (C ≤ 35)
CCOc1ccccc1-c1nnc2n1N=C(c1ccc(N3CCCC3)cc1)CS2 | CXCR4 (Homo sapiens, UniProt P61073) | A (A ≥ 70)

Provide TANGO β-arrestin Emax (%), tested on CXCR4 (Homo sapiens, UniProt P61073), for `CCOc1ccccc1-c1nnc2n1N=C(c1ccc(NC(=O)C3CC3)cc1)CS2` .
A (A ≥ 70)

Answer briefly: TANGO β-arrestin Emax (%) recorded on CXCR4 (Homo sapiens, UniProt P61073) for `CCOc1ccccc1-c1nnc2n1N=C(c1ccc(NC3CCCCC3)cc1)CS2`
C (C ≤ 35)

Report TANGO β-arrestin Emax (%) under test system CXCR4 (Homo sapiens, UniProt P61073) for `CCOc1ccccc1-c1nnc2n1N=C(c1ccc(NC(C)=O)cc1)CS2` .
C (C ≤ 35)

Enter TANGO β-arrestin Emax (%) (test system CXCR4 (Homo sapiens, UniProt P61073)) for `CCCCc1ccc(C2=Nn3c(nnc3-c3ccccc3OC)SC2)cc1`
C (C ≤ 35)

// fetch TANGO β-arrestin Emax (%); item: `C#CCCCNc1ccc(C2=Nn3c(nnc3-c3ccccc3OCC)SC2)cc1` ; system: CXCR4 (Homo sapiens, UniProt P61073)
C (C ≤ 35)
